Target: T1, cyno IL-33 N-His (cynomolgus monkey)
T1 chain: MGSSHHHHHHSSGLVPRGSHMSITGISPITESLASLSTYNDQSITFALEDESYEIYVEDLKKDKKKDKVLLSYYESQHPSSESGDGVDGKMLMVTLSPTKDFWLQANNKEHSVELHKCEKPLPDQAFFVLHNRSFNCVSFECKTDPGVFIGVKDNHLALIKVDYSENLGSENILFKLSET
Assay: SPR Biacore T200, 25 C
observable: koff (s⁻¹)
Answers are plain numbers, in s⁻¹.

# annotated cases, reported koff shown
[
  {
    "binder": "H4H9660P (antibody, V domains shown) VH: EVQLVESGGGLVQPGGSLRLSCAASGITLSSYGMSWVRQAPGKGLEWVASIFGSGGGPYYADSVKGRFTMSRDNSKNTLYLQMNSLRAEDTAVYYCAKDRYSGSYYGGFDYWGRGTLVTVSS VL: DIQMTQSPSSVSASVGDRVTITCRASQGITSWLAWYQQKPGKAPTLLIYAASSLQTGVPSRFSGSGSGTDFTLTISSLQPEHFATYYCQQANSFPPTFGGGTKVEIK",
    "unitSpec": "s⁻¹",
    "koff": 0.00064
  },
  {
    "binder": "H4H9664P (antibody, V domains shown) VH: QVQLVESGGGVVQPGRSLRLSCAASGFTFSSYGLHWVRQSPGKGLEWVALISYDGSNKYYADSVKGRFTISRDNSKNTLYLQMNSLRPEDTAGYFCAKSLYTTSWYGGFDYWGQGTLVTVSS VL: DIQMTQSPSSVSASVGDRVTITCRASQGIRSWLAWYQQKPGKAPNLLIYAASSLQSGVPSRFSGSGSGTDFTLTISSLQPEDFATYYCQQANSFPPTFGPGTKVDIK",
    "unitSpec": "s⁻¹",
    "koff": 0.000556
  }
]

Prompt: Looking for the measured koff of H4H9629P (antibody, IgG4, V domains shown, also called RG4) VH: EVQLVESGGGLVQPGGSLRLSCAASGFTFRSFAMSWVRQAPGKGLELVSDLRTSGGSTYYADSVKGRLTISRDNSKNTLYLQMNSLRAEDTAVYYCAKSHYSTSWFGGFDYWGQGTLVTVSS VL: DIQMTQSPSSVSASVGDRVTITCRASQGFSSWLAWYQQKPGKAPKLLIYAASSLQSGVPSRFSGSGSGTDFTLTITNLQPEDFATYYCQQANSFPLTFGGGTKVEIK , can you help?
Response: 0.0204
